- measured-target: TPβ (Homo sapiens)
- Construct: expressed in transfected cells; host or cells: HEK 293 (HEK.TPβ, isolate EM #8)
- Sequence (P21731 1-407 isoform P21731-2): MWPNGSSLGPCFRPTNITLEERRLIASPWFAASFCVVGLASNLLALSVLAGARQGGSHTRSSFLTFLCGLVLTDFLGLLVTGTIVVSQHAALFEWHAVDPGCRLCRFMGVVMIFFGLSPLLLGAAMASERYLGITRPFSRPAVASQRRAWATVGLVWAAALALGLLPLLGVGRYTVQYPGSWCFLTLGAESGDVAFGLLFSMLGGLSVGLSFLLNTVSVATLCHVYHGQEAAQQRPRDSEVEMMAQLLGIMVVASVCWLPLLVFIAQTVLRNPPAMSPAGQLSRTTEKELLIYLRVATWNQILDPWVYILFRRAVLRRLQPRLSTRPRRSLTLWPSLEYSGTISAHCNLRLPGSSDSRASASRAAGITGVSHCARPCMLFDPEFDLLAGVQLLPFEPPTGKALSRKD
- procedure-text: U46619-mediated calcium mobilization in HEK.TPβ cells
- Type: cell-based
- condition-label: 1 μM U46619, estimated IC50, mean ± S.E.M., read-out: IC50 values for Inhibition of U46619-Mediated [Ca2+]i Mobilisation, TPβ

{"columns": ["molecular-string", "IC50"],
 "data": [
  ["CN(C)C(=O)c1ccc(-c2cccc(Oc3ccc(C#N)cc3S(=O)(=O)NC(=O)NC(C)(C)C)c2)cc1", "5.06 nM"],
  ["CC(C)(C)NC(=O)NS(=O)(=O)c1cc(C#N)ccc1Oc1cccc(-c2ccc(OC(F)F)cc2)c1", "8.25 nM"],
  ["CC(C)(C)NC(=O)NS(=O)(=O)c1cc(C#N)ccc1Oc1cccc(-c2ccc(OC(F)(F)F)cc2)c1", "18.4 nM"]
]}
